This collection of values is drawn from patent US5705508A.

Tested on: MCF7-R (adriamycin resistant breast cancer)
Experiment: Anticancer activity, inhibition of cell proliferation, MCF7-R (adriamycin resistant breast)
Format: cell-based
Conditions: Homo sapiens, MCF7R, read-out: IC50, MCF7-R
Assay endpoint: pIC50
pIC50 field: float, defined as -log10 of concentration (mol/L).

Report pIC50 for CC(=O)OC12COC1CC(O)C1(C)C(=O)C(OC(=O)N(C)C)C3=C(C)C(OC(=O)C(O)C(CC(C)C)NC(=O)OC(C)(C)C)C4OC(=O)OC4(C(OC(=O)c4ccccc4)C21)C3(C)C (stereo not shown) please.
7.66

----------
Test system: A549 (non-small cell lung cancer)
Test: Anticancer activity, inhibition of cell proliferation, A549 (NSCLC)
Type: cell-based
Details: Homo sapiens; concentration that inhibits 50% of cell proliferation; A549 (NSCLC); read-out: IC50, A549 (NSCLC)
Experimental: Compounds SB-T-101131, SB-T-101133, SB-T-101134, SB-T-10114, SB-T-101141, SB-T-101142, SB-T-101143, SB-T-101144, SB-T-101146, SB-T-101151 and SB-T-101161 were prepared according to the protocols described in Examples 59 and 60 above. These compounds were evaluated for cancer activity against human cancer cell lines of A121 (ovarian cancer), A549 (non-small cell lung cancer), HT-29 (colon cancer), MCF7 (breast cancer), and MCF7-R (adriamycin resistant breast cancer). […]
# Lookup of reported pIC50 keyed by entry
pIC50 field: float, defined as -log10 of concentration (mol/L).

Form: Entry = CC=CC(NC(=O)OC(C)(C)C)C(O)C(=O)OC1C(C)=C2C(OC(C)=O)C(=O)C3(C)C(O)CC4OCC4(OC(C)=O)C3C(OC(=O)c3ccccc3)C3(OC(=O)OC13)C2(C)C (stereo not drawn) | System = A549 (non-small cell lung cancer) | pIC50 = ____
9.40

Form: Entry = CC(=O)OC12COC1CC(O)C1(C)C(=O)C(OC(=O)C3CC3)C3=C(C)C(OC(=O)C(O)C(CC(C)C)NC(=O)OC(C)(C)C)C4OC(=O)OC4(C(OC(=O)c4ccccc4)C21)C3(C)C (stereo not drawn) | System = A549 (non-small cell lung cancer) | pIC50 = ____
8.92

Form: Entry = CC(=O)OC1C(=O)C2(C)C(O)CC3OCC3(OC(C)=O)C2C(OC(=O)c2ccccc2)C23OC(=O)OC2C(OC(=O)C(O)C(C=C(C)C)NC(=O)OC(C)(C)C)C(C)=C1C3(C)C (stereo not drawn) | System = A549 (non-small cell lung cancer) | pIC50 = ____
8.85
